B1: ZNF24 (parent)
chain: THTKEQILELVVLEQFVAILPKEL

# Variants of: B1
# PROCEDURE_TEXT: protein stability index of a GFP-peptide fusion (GPS, HEK-293T) (PSI 1-6); higher = more stable;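 note: lentivirally expressed fusions sorted by FACS into six bins by GFP to DsRed ratio, PSI derived from sequencing read proportions per bin multiplied by bin number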
# MEASUREMENT_SETUP: c terminus: a fixed tail appended
Could you label it Condition met if measured protein stability index is 2 or higher, and Condition not met otherwise?

Illustrative cases are given below, each with its answer.
>>> cat("THTKEQILELVVLVQFVAILPKEL [E14V]")
"Condition not met"
>>> cat("THTKEQILELVVAEQFVAILPKEL [L13A]")
"Condition not met"
>>> cat("THTKEQILELRVLEQFVAILPKEL [V11R]")
"Condition not met"
>>> cat("THTKEQILELVVLEQFVAILPKKL [E23K]")
"Condition not met"
>>> cat("THTNEQILELVVLEQFVAILPKEL [K4N]")
"Condition met"

Hello, I need to know if THTKQQILELVVLEQFVAILPKEL [E5Q] has measured protein stability index not below 2. Thanks! Condition met

Hello, I need to know if THTKEQILEGVVLEQFVAILPKEL [L10G] has measured protein stability index not below 2. Thanks! Condition not met

Hello, I need to know if THTKEQILELVVLEQFPAILPKEL [V17P] has measured protein stability index not below 2. Thanks! Condition not met

Hello, I need to know if THTKEQILELVVREQFVAILPKEL [L13R] has measured protein stability index not below 2. Thanks! Condition not met

Hello, I need to know if SHTKEQILELVVLEQFVAILPKEL [T1S] has measured protein stability index not below 2. Thanks! Condition met

Hello, I need to know if THTKEQILELVVLEQFVAILFKEL [P21F] has measured protein stability index not below 2. Thanks! Condition not met
